IC50 overview
system_under_test: αvβ6 (Homo sapiens, UniProt P06756+P18564)
Sequence (P06756 31-992 limits assumed): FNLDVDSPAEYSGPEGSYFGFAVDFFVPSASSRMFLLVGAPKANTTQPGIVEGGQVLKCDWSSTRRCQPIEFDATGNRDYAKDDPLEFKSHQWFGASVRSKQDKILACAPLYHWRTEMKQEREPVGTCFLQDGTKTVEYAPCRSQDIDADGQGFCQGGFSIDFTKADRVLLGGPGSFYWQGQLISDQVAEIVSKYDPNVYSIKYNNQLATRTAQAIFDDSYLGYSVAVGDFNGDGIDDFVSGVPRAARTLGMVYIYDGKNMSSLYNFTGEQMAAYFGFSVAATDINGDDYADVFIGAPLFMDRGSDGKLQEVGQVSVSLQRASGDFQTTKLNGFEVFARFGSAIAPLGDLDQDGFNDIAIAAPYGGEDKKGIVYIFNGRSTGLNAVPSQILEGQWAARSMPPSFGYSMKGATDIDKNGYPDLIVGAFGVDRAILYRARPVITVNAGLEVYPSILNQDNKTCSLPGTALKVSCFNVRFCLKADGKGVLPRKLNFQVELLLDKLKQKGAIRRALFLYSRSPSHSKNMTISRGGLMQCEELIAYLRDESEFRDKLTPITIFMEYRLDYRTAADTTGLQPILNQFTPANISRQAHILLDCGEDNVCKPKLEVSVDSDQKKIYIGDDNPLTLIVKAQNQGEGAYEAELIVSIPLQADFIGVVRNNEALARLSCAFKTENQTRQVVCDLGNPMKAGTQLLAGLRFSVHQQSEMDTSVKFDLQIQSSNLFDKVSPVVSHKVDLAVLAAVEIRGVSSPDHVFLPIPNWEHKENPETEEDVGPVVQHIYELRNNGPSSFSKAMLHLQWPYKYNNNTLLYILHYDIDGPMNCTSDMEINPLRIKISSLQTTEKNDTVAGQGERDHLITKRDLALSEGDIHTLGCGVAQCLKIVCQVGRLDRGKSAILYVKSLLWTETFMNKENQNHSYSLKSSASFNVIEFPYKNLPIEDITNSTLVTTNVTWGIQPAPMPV
Sequence (P18564 22-707 limits assumed): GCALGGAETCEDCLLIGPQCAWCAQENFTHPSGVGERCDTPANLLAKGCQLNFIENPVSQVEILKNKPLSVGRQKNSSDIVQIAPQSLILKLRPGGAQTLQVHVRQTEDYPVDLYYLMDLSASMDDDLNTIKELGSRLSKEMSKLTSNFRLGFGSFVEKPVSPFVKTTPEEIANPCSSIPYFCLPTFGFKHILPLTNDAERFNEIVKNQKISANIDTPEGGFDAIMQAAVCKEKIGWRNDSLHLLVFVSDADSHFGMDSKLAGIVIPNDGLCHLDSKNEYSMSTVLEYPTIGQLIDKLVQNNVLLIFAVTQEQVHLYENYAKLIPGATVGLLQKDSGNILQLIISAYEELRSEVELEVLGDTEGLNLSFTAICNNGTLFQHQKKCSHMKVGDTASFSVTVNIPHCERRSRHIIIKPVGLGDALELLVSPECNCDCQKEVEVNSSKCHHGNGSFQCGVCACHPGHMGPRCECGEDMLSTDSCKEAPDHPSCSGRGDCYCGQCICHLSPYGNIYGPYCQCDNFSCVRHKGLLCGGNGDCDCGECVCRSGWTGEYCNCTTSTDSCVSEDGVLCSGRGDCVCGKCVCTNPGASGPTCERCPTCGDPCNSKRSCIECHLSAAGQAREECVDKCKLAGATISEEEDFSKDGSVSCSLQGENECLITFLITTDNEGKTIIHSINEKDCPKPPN
assay_notes: Solid Phase Integrin αvβ6 Assay

{"compound": "O=C(N[C@H](CCO[C@@H]1CCCN(CCCc2ccc3c(n2)NCCC3)C1)C(=O)O)c1cc(Cl)cc(Cl)c1", "IC50": "100 to 1000 nM"}

Attention now shifts to the item below.
[ask] Return IC50 for the following compound: O=C(O)C[C@H](NC(=O)[C@H]1CCCN(CCCc2ccc3c(n2)NCCC3)C1)c1ccccc1
[reply] < 100 nM

---

system_under_test: αvβ6 (Homo sapiens, UniProt P06756+P18564)
assay_notes: Solid Phase Integrin αvβ6 Assay
pIC50: −log10 of the molar value. Where a name gives a salt, the structure may show the parent alone.
pIC50 overview

{"compound": "O=C(N[C@@H](CNC(=O)[C@@H]1CCCN(CCCc2ccc3c(n2)NCCC3)C1)C(=O)O)c1ccc(F)c(Cl)c1", "pIC50": "> 7.00"}
{"compound": "O=C(O)C[C@@H](NC(=O)[C@@H]1CCCN(CCCc2ccc3c(n2)NCCC3)C1)c1cnc2ccccc2c1", "pIC50": "> 7.00"}
{"compound": "O=C(CC[C@@H](NC(=O)C12CCC(CC1)CC2)C(=O)O)N[C@H]1CCN(CCCCc2ccc3c(n2)NCCC3)C1", "pIC50": "< 6.00"}
{"compound": "O=C(O)[C@H](CO[C@@H]1CCCN(CCCCc2ccc3c(n2)NCCC3)C1)NC(=O)C12CCC(CC1)CC2", "pIC50": "> 7.00"}
{"compound": "O=C(O)[C@](O)(CO[C@@H]1CCCN(CCCCc2ccc3c(n2)NCCC3)C1)c1ccccc1", "pIC50": "< 6.00"}

[ask] Give reported pIC50 for O=C(CC[C@H](NC(=O)C12CCC(CC1)CC2)C(=O)O)N[C@@H]1CCN(C(=O)CCCc2ccc3c(n2)NCCC3)C1 (αvβ6 (Homo sapiens, UniProt P06756+P18564))
[reply] > 7.00

[ask] Give reported pIC50 for C[C@@H]1OCCN(c2cccc([C@H](CC(=O)O)NC(=O)[C@@H]3CCCN(CCCc4ccc5c(n4)NCCC5)C3)c2)[C@H]1C (αvβ6 (Homo sapiens, UniProt P06756+P18564))
[reply] > 7.00

[ask] Give reported pIC50 for O=C(NC[C@@H](C(=O)O)c1cccc2ccccc12)[C@@H]1CCCN(CCCc2ccc3c(n2)NCCC3)C1 (αvβ6 (Homo sapiens, UniProt P06756+P18564))
[reply] > 7.00

[ask] Give reported pIC50 for O=C(O)[C@@H](CCO[C@@H]1CCCN(CCCc2ccc3c(n2)NCCC3)C1)NC(=O)C12CCC(CC1)CC2 (αvβ6 (Homo sapiens, UniProt P06756+P18564))
[reply] > 7.00

[ask] Give reported pIC50 for C[C@@H]1C[C@H](C(=O)NC[C@H](C(=O)O)c2cccc(-c3ccccc3)c2)CN(CCCc2ccc3c(n2)NCCC3)C1 (αvβ6 (Homo sapiens, UniProt P06756+P18564))
[reply] > 7.00

[ask] Give reported pIC50 for O=C(NC[C@H](C(=O)O)c1ccc2ccccc2c1)[C@@H]1CCCN(CCCc2ccc3c(n2)NCCC3)C1 (αvβ6 (Homo sapiens, UniProt P06756+P18564))
[reply] > 7.00

[ask] Give reported pIC50 for O=C(NC[C@H](Nc1ccc(-c2ccccc2)nc1)C(=O)O)[C@@H]1CCCN(CCCc2ccc3c(n2)NCCC3)C1 (αvβ6 (Homo sapiens, UniProt P06756+P18564))
[reply] > 7.00

[ask] Give reported pIC50 for O=C(N[C@@H](CNC(=O)[C@@H]1CCCN(CCCc2ccc3c(n2)NCCC3)C1)C(=O)O)C1CCCCC1 [Compound 262, hydrochloride] (αvβ6 (Homo sapiens, UniProt P06756+P18564))
[reply] > 7.00

[ask] Give reported pIC50 for O=C(O)C[C@H](CN[C@@H]1CCCN(CCCc2ccc3c(n2)NCCC3)C1)c1ccccc1 (αvβ6 (Homo sapiens, UniProt P06756+P18564))
[reply] > 7.00

[ask] Give reported pIC50 for O=C(NC[C@H](C(=O)O)c1cccc(N2C[C@H]3CC[C@@H]2CO3)c1)[C@@H]1CCCN(CCCc2ccc3c(n2)NCCC3)C1 (αvβ6 (Homo sapiens, UniProt P06756+P18564))
[reply] > 7.00

[ask] Give reported pIC50 for O=C(O)C[C@@H](CO[C@@H]1CCCN(Cc2ccc3c(n2)NCCC3)C1)c1ccccc1 (αvβ6 (Homo sapiens, UniProt P06756+P18564))
[reply] < 6.00

[ask] Give reported pIC50 for O=C(NC[C@H](Nc1ccccc1C1CC(F)(F)C1)C(=O)O)[C@@H]1CCCN(CCCc2ccc3c(n2)NCCC3)C1 (αvβ6 (Homo sapiens, UniProt P06756+P18564))
[reply] > 7.00

[ask] Give reported pIC50 for O=C(NC[C@H](C(=O)O)c1ccc2c(c1)CCC2)[C@@H]1CCCN(CCCc2ccc3c(n2)NCCC3)C1 (αvβ6 (Homo sapiens, UniProt P06756+P18564))
[reply] 6.00 to 7.00

[ask] Give reported pIC50 for O=C(O)C[C@H](NC(=O)[C@@H]1CCCN(CCCc2ccc3c(n2)NCCC3)C1)c1ccccc1C1CC1 (αvβ6 (Homo sapiens, UniProt P06756+P18564))
[reply] 6.00 to 7.00

[ask] Give reported pIC50 for O=C(O)C[C@@H](NC(=O)[C@@H]1CCCN(CCCc2ccc3c(n2)NCCC3)C1)c1ccc2c(c1)CCC2 [Compound 201-B, hydrochloride] (αvβ6 (Homo sapiens, UniProt P06756+P18564))
[reply] > 7.00

[ask] Give reported pIC50 for C[C@@H]1C[C@@H](C(=O)NC[C@H](C(=O)O)c2cccc(-c3ccccc3)c2)CN(CCCc2ccc3c(n2)NCCC3)C1 (αvβ6 (Homo sapiens, UniProt P06756+P18564))
[reply] < 6.00

[ask] Give reported pIC50 for CC1(C)CN(c2cc([C@H](CO[C@@H]3CCCN(CCCc4ccc5c(n4)NCCC5)C3)CC(=O)O)ccc2Cl)CCO1 (αvβ6 (Homo sapiens, UniProt P06756+P18564))
[reply] 6.00 to 7.00

[ask] Give reported pIC50 for O=C(O)C(c1ccccc1)C(O)CO[C@@H]1CCCN(CCCc2ccc3c(n2)NCCC3)C1 (stereo partly drawn) (αvβ6 (Homo sapiens, UniProt P06756+P18564))
[reply] < 6.00

[ask] Give reported pIC50 for O=C(NC[C@H](NS(=O)(=O)c1ccc2c(c1)CCC2)C(=O)O)[C@@H]1CCCN(CCCc2ccc3c(n2)NCCC3)C1 (αvβ6 (Homo sapiens, UniProt P06756+P18564))
[reply] > 7.00

[ask] Give reported pIC50 for Cc1cc(C)n(-c2cccc([C@H](CC(=O)O)NC(=O)[C@@H]3CCCN(CCCc4ccc5c(n4)NCCC5)C3)c2)c1 (αvβ6 (Homo sapiens, UniProt P06756+P18564))
[reply] > 7.00

[ask] Give reported pIC50 for O=C(N[C@@H](CCO[C@@H]1CCCN(CCCc2ccc3c(n2)NCCC3)C1)C(=O)O)c1c(F)cccc1F (αvβ6 (Homo sapiens, UniProt P06756+P18564))
[reply] > 7.00

[ask] Give reported pIC50 for O=C(N[C@@H](CNC(=O)[C@@H]1CCCN(CCCc2ccc3c(n2)NCCC3)C1)C(=O)O)c1ccccc1C1CC1 (αvβ6 (Homo sapiens, UniProt P06756+P18564))
[reply] > 7.00
